test system: Leptosphaeria nodorum (LEPTNO); assay: Glume Blotch of Wheat, whole plant 24 Hour Protectant (T2); conditions: Parastagonospora nodorum; wheat (cultivar Yuma), sprayed at 100 ppm, inoculated after 24 hours; read-out: T2 LEPTNO in vivo 1 Day Protectant, control of fungal infection
# pest or weed control at 100 ppm listing for each entry below

Please review the entries below; each comes with its answer.
CCC(=O)OCOc1c(OC)ccnc1C(=O)N[C@H]1COC(=O)[C@H](Cc2ccccc2)[C@@H](OC(=O)C(C)C)[C@H](C)OC1=O 75 to 100%
C=C(C)CO[C@H]1[C@H](C)OC(=O)[C@@H](NC(=O)c2nccc(OC)c2OCOC(C)=O)COC(=O)[C@@H]1Cc1ccccc1 75 to 100%

Kindly consider the entry below.
May I ask what pest or weed control at 100 ppm has been recorded for CCOCOc1c(OC)ccnc1C(=O)N[C@H]1COC(=O)[C@H](Cc2ccccc2)[C@@H](OC(=O)C(C)C)[C@H](C)OC1=O ?
75 to 100%

====

test system: Ustilago maydis (USTIMA); assay: microbe, parasite or virus in culture; assay type: cell-based; conditions: Mycosarcoma maydis, read-out: T12 USTIMA in vitro Growth Inhibition
# inhibition at 25 ppm listing for each entry below

Please review the entries below; each comes with its answer.
Molecule	Result
COCCC(=O)OCOc1c(OC)ccnc1C(=O)N[C@H]1COC(=O)[C@H](Cc2ccccc2)[C@@H](OCC(C)C)[C@H](C)OC1=O	> 80%
COc1ccnc(C(=O)N[C@H]2COC(=O)[C@H](Cc3ccccc3)[C@@H](OC(=O)C(C)C)[C@H](C)OC2=O)c1OCOCC(C)C	> 80%
COc1ccnc(C(=O)N[C@H]2COC(=O)[C@H](Cc3ccccc3)[C@@H](OC(=O)C(C)C)[C@H](C)OC2=O)c1OCOC(C)(C)C	> 80%

May I ask what inhibition at 25 ppm has been recorded for COc1ccnc(C(=O)N[C@H]2COC(=O)[C@H](Cc3ccccc3)[C@@H](OC(=O)C(C)C)[C@H](C)OC2=O)c1OCOC(=O)c1ccccc1 ?
< 80%

May I ask what inhibition at 25 ppm has been recorded for COc1ccnc(C(=O)N[C@H]2COC(=O)[C@H](Cc3ccccc3)[C@@H](OC(=O)C(C)C)[C@H](C)OC2=O)c1OCOC(=O)COCC(C)C ?
< 80%

====

tested on: Ustilago maydis (USTIMA); assay: microbe, parasite or virus in culture; type: cell-based; conditions: Mycosarcoma maydis, read-out: T12 USTIMA in vitro Growth Inhibition
# inhibition at 25 ppm listing for each entry below

CCCOCOc1c(OC)ccnc1C(=O)N[C@H]1COC(=O)[C@H](Cc2ccccc2)[C@@H](OC(=O)C(C)C)[C@H](C)OC1=O < 80%
COCC(=O)OCOc1c(OC)ccnc1C(=O)N[C@H]1COC(=O)[C@H](Cc2ccccc2)[C@@H](OCC(C)C)[C@H](C)OC1=O > 80%
CCCO[C@H]1[C@H](C)OC(=O)[C@@H](NC(=O)c2nccc(OC)c2OCOC(C)=O)COC(=O)[C@@H]1Cc1ccccc1 < 80%
COc1ccnc(C(=O)N[C@H]2COC(=O)[C@H](Cc3ccccc3)[C@@H](OCC(C)C)[C@H](C)OC2=O)c1OCOC(=O)C1CC1 < 80%

May I ask what inhibition at 25 ppm has been recorded for COCCOCCOCC(=O)OCOc1c(OC)ccnc1C(=O)N[C@H]1COC(=O)[C@H](Cc2ccccc2)[C@@H](OC(=O)C(C)C)[C@H](C)OC1=O ?
> 80%

May I ask what inhibition at 25 ppm has been recorded for CCCO[C@H]1[C@H](C)OC(=O)[C@@H](NC(=O)c2nccc(OC)c2OCOC(=O)COCC)COC(=O)[C@@H]1Cc1ccccc1 ?
> 80%
